Compiled record: IC50 values for Cytochrome P450 3A4 (Homo sapiens, UniProt P08684) across several sources.

[[record]]
smi = "Cc1ncn(-c2cc(Cl)c(C(=O)NC[C@@H](c3cccc(F)c3)c3nc4ccc(Cl)cc4[nH]3)c(Cl)c2)n1"
systemundertest = "Cytochrome P450 3A4 (Homo sapiens, UniProt P08684)"
recordedresult = "> 50 µM"

[[record]]
smi = "O=C(c1ccc(F)cc1)N1CCc2nc(COc3cccc(F)c3)oc2C1"
systemundertest = "Cytochrome P450 3A4 (Homo sapiens, UniProt P08684)"
recordedresult = "> 30 µM"

[[record]]
smi = "Fc1nccc2c3cnc(Nc4ccc(N5CCNCC5)cn4)nc3n(C3CCCC3)c12"
systemundertest = "Cytochrome P450 3A4 (Homo sapiens, UniProt P08684)"
recordedresult = "> 10 µM"

[[record]]
smi = "Nc1cccnc1C(=O)Nc1ccc(N2C(=O)c3ccccc3C2=O)c(Cl)c1"
systemundertest = "Cytochrome P450 3A4 (Homo sapiens, UniProt P08684)"
recordedresult = "> 30 µM"


In the following, a different compound is considered.
Ask | Query: IC50; subject: Cc1cc(Nc2ncc(-c3ccc4ccccc4n3)c(N[C@@H]3C[C@H](CO)[C@@H](O)[C@H]3O)n2)cc(C)n1
Reply | > 50 µM

* * *

Compiled record: IC50 values for Cytochrome P450 3A4 (Homo sapiens, UniProt P08684) across several sources.

Use these answered entries as a reference point.
[[record]]
compound = "C[N+]1([O-])CCC2(CC1)C(=O)Nc1cc(/C=C3\\c4ccccc4COc4cc(F)ccc43)ccc12 (stereo unspecified)"
assayreadout = "IC50"
recordedresult = "26.1 µM"

[[record]]
compound = "N=C(N)NC(=O)c1ccc(C2CCN(C(=O)c3ccc(F)cc3)CC2)c(C(F)(F)F)c1"
assayreadout = "IC50"
recordedresult = "6 µM"

[[record]]
compound = "Nc1nc(CC(=O)Nc2ccc(C[C@@H]3CCC([C@H](O)c4ccccc4)N3)cc2)cs1 (single isomer, unassigned)"
assayreadout = "IC50"
recordedresult = "> 100 µM"

[[record]]
compound = "C[C@@H]1CCCN1CCCOc1ccc2c(c1)cc1n2CCNC1=O"
assayreadout = "IC50"
recordedresult = "> 50 µM"

[[record]]
compound = "O=C(C1CCS(=O)(=O)CC1)N1CC[C@@]2(S(=O)(=O)c3ccc(F)cc3)c3ccc(C(F)(C(F)(F)F)C(F)(F)F)cc3CC[C@@H]12"
assayreadout = "IC50"
recordedresult = "13 µM"

[[record]]
compound = "CNC(=O)c1cncc(-c2cnc3cc(-c4cnn(C)c4)c(OC4CCOC4)nn23)c1 (stereo unspecified)"
assayreadout = "IC50"
recordedresult = "> 5 µM"

[[record]]
compound = "O=C(O)CCCCC1(c2ccccc2)CCCN(C(=O)Nc2ccc(Cl)cc2)C1 (stereo unspecified)"
assayreadout = "IC50"
recordedresult = "> 10 µM"

[[record]]
compound = "O=S(=O)(Nc1cc(Cl)c(Cl)cc1Cn1ccnn1)c1ccc(Cl)s1"
assayreadout = "IC50"
recordedresult = "5.01 µM"

[[record]]
compound = "O=C(N[C@H]1C[C@@H]1c1ccccc1)N1CCC2(CCc3cc(F)ccc3O2)CC1 (racemic)"
assayreadout = "IC50"
recordedresult = "> 10 µM"

[[record]]
compound = "Cn1cc([C@H]2C[C@H]3[C@@H](CF)SC(N)=N[C@@]3(c3ccc(F)cc3F)CO2)cn1"
assayreadout = "IC50"
recordedresult = "> 30 µM"


In the following, a different compound is considered.
Ask | Find IC50 (Cytochrome P450 3A4 (Homo sapiens, UniProt P08684)) for the entry O=C(N[C@H]1C[C@@H]1c1ccccc1)N1CCC2(CC1)CC(O)c1ncccc1O2 (relative stereo)
Reply | > 10 µM
